Where do these numbers come from? They come from ChEMBL document CHEMBL5058577.

- Test system: HEK-293T
- Assay Overview: Multiplex assay against HEK293T
- Type: toxicity, cell-based
- Applied Conditions: human, 12 h, 10 µM, compound concentration 10 uM, replicate 1
Quantity Name: Population Fragmented Nuclei (%)

INSERT INTO results (molecule, system_under_test, recorded_value) VALUES
  ('C[C@H](NC(=O)c1c(C(F)F)nn(C)c1Oc1cccc(C(F)(F)F)c1)c1ccc(C(=O)O)cc1', 'HEK-293T', 7),
  ('O=C(O)Cc1ccccc1Nc1c(Cl)cccc1Cl', 'HEK-293T', 7),
  ('N[C@@]1(C(=O)O)CO[C@H]2[C@H](C(=O)O)[C@H]21', 'HEK-293T', 10),
  ('COc1c(C)cc(NC(=O)c2nn(Cc3ccc(F)cc3)c3c2CN(C(=O)c2ccc[nH]2)C[C@]3(C)C(N)=O)cc1C', 'HEK-293T', 4);

###

Property: Total Cell Count; scope: individual compounds
- System: Fibroblast
- Assay Overview: Multiplex assay against human fibroblast
- Assay type: toxicity, cell-based
- Applied Conditions: 12 h, 10 µM, compound concentration 10 uM, replicate 1
Quantity Name: Total Cell Count

INSERT INTO assay_data (compound, quantity_name, recorded_value) VALUES
  ('N#Cc1c(N)nc(SCc2csc(-c3ccc(Cl)cc3)n2)c(C#N)c1-c1ccc(OCCO)cc1 [CAPADENOSON]', 'Total Cell Count', 172),
  ('CN1CCN(c2nc3cc(C(F)(F)F)ccc3n3cccc23)CC1.O=C(O)/C=C\C(=O)O.O=C(O)/C=C\C(=O)O', 'Total Cell Count', 207),
  ('CSCC[C@H](NC=O)C(=O)N[C@@H](CC(C)C)C(=O)N[C@@H](Cc1ccccc1)C(=O)O', 'Total Cell Count', 112),
  ('CC[C@H]1OC(=O)[C@H](C)[C@@H](O[C@H]2C[C@@](C)(OC)[C@@H](O)[C@H](C)O2)[C@H](C)[C@@H](O[C@@H]2O[C@H](C)C[C@H](N(C)C)[C@H]2O)[C@@]2(C)CC(C)=C(O2)[C@H](C)[C@@H](O)[C@]1(C)O', 'Total Cell Count', 205),
  ('Cl.Clc1ccc2nsnc2c1NC1=NCCN1 [TIZANIDINE HYDROCHLORIDE]', 'Total Cell Count', 129),
  ('Cc1ccc(F)cc1C(=O)Nc1ccc(C(=O)N2Cc3cccn3Cc3ccccc32)c(Cl)c1 [LIXIVAPTAN]', 'Total Cell Count', 137),
  ('Cc1ccccc1C(=O)Nc1ccc(C(=O)N2CCCC(N(C)C)c3ccccc32)cc1.Cl (configuration not stated)', 'Total Cell Count', 108);

###

- Tested on: U2OS
- Assay Overview: Multiplex assay against U2OS
- Format: toxicity, cell-based
- Applied Conditions: human, 48 h, 1 µM, compound concentration 1 uM, replicate 1
Property: Population Fragmented Nuclei (%); scope: individual compounds
Quantity Name: Population Fragmented Nuclei (%)

INSERT INTO assay_data (compound, recorded_value) VALUES
  ('CC[C@H]1OC(=O)[C@H](C)[C@@H](O[C@H]2C[C@@](C)(OC)[C@@H](O)[C@H](C)O2)[C@H](C)[C@@H](O[C@@H]2O[C@H](C)C[C@H](N(C)C)[C@H]2O)[C@@]2(C)CC(C)=C(O2)[C@H](C)[C@@H](O)[C@]1(C)O', 19),
  ('Cc1ccc(/C(=C\CN2CCCC2)c2ccccn2)cc1', 17),
  ('CNC[C@H](O)c1ccc(O)c(O)c1 [EPINEPHRINE]', 24),
  ('CN1CCN2c3ncccc3Cc3ccccc3C2C1 (stereo not drawn)', 12),
  ('Cc1ccc(C(C)(O)c2nc3ccccc3s2)c(C)c1 (stereo not drawn)', 16),
  ('COc1ccc2c(c1)C(C(=O)N(Cc1ccc(N(C)C)cc1)c1ccc(C(C)C)cc1)CCC2.Cl (stereo not drawn)', 21),
  ('CCOc1c2c(c(OCC)c3ncccc13)CN(c1ccc(CS(=O)(=O)NC(=O)Cc3ccccc3OC)cc1C)C2=O', 19),
  ('CC1(COc2ccc3c(c2)ncn3-c2ccc3cccc(N4CCC(N)CC4)c3n2)COC1', 41);
